Target: Cytochrome P450 2D6 (Homo sapiens, UniProt P10635);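 note: CYP2D6 member of a cytochrome P450 panel assay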
Sequence (P10635 whole entry): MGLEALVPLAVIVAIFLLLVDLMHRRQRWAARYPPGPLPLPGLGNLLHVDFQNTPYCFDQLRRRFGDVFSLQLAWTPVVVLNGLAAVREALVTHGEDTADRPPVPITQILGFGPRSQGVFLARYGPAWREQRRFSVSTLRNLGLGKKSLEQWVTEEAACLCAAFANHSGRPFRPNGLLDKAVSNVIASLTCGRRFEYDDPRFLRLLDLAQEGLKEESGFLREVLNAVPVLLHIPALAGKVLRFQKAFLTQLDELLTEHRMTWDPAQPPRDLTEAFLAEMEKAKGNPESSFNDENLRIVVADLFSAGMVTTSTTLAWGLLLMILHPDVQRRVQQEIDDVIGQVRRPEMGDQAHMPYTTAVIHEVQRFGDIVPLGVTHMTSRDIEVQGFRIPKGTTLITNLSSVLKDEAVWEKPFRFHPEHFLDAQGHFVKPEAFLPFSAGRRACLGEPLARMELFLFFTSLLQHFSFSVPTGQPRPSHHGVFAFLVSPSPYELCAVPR
Each entry below lists one item and its recorded AC50 value.

Past entries and their recorded results:
{"structure": "COc1ccccc1CNc1ccnc(-c2cccc(NS(C)(=O)=O)c2)n1", "AC50": "39.8 µM (inconclusive)"}
{"structure": "CCOCCn1c(CN(Cc2ccccc2)Cc2ccccc2)nc2c1c(=O)[nH]c(=O)n2C", "AC50": "39.8 µM (inconclusive)"}

Indicate its recorded AC50; the molecule in question is CCCc1c(-c2ccc(O)cc2)nn(-c2ccc(O)cc2)c1-c1ccc(O)cc1
12.6 µM (inconclusive)

Indicate its recorded AC50; the molecule in question is Cc1nc2c(C(=O)NCc3ccc4c(c3)OCO4)cnn2c(O)c1Cc1ccccc1F
25.1 µM (inconclusive)

Indicate its recorded AC50; the molecule in question is CN(C)C(=O)c1ccc(-c2ccc3ncnc(Nc4ccccc4)c3c2)cc1
12.6 µM (inconclusive)

---

Target: Kappa-type opioid receptor (Homo sapiens)
Sequence (P41145 whole entry): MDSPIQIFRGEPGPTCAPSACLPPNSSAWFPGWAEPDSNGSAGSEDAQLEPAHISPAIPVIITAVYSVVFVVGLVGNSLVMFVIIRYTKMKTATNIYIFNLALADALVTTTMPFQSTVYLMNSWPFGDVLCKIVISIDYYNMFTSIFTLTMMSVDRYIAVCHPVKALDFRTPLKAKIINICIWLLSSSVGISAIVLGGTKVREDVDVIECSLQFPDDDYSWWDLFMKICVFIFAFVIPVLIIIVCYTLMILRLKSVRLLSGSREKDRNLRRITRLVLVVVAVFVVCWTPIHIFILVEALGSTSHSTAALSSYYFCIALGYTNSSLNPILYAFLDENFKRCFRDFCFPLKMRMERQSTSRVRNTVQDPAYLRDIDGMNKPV
Format: functional
pIC50: −log10 of the molar value.
measuredEndpoint: pIC50

Indicate its recorded pIC50; the compound in question is COc1cc2c(cc1OC)C1(CCCC1)CNC2c1cccc([N+](=O)[O-])c1 (stereo unspecified)
< 4.49

---

Biological target: Major prion protein (Homo sapiens, UniProt P04156)
Type: functional, cell-based
Calls of active or inactive are those of the source.
Each entry below lists one item and its recorded IC50 value.

{"compound": "CCCc1nc(SCC(=O)NNC(=O)C2CCCCC2)c2ccccc2n1", "IC50": "0.896 µM (active)"}
{"compound": "Cc1c(Br)c(=O)oc2cc(OCC(=O)N3C[C@H]4C[C@@H](C3)c3cccc(=O)n3C4)ccc12", "IC50": "8.34 µM (active)"}
{"compound": "CC(=O)NC(CSc1cc(C)nc2ccc(Br)cc12)C(=O)O (centres undefined)", "IC50": "4.48 µM (active)"}

Here's the next entry for you.
Indicate its recorded IC50; the compound in question is O=S(=O)(C/C(=C/CO)S(=O)(=O)c1ccccc1)c1ccccc1
9.14 µM (active)

---

Biological target: Orexin/Hypocretin receptor type 1 (Homo sapiens, UniProt O43613)
Sequence (O43613 whole entry): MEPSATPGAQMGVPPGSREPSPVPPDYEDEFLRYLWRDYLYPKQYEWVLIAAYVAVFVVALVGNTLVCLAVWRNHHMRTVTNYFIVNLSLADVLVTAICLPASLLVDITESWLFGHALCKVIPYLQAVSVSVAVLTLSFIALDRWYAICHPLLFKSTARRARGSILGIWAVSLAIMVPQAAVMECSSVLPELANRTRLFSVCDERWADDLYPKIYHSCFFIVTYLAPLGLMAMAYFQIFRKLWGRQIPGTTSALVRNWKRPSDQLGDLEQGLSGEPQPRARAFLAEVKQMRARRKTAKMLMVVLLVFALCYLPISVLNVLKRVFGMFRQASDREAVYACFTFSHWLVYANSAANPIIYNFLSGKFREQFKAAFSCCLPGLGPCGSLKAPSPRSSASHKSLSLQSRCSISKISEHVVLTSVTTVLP
Assay: Fluorescence-based cell-based high throughput dose response assay for antagonists of the orexin 1 receptor (OX1R; HCRTR1). [Related pubchem assays (depositor defined):AID434989, AID435008, AID463079, AID485270, AID492963, AID492964, AID492965, AID493232, AID504717, AID504718]
Type: functional
The source made the active and inactive calls.
// allowed return values: TRUE for active, FALSE for inactive

{"structure": "CC(C)(O)c1cc2ccc(C#Cc3ccsc3)cc2c(=O)o1", "qualitativeLabel": "TRUE"}

For COc1ccc(CN2CC[C@H]3C=CC[C@@H](C(=O)Nc4ccc(Cl)c(C(F)(F)F)c4)[C@H]3C2=O)cc1OC , which call appears in the assay record?
TRUE

For Cc1ccnc2ccc(-c3nc4ccccc4o3)cc12 , which call appears in the assay record?
TRUE

For O=C1N[C@@H](c2ccccc2)COC(=O)[C@@H](Cc2ccc(F)cc2)C/C=C\C[C@@H]1CC(=O)N(CCO)Cc1ccccc1 , which call appears in the assay record?
FALSE

For O=C(N=Nc1c(O)[nH]c2ccccc12)c1cccc(S(=O)(=O)Nc2ccccc2Cl)c1 , which call appears in the assay record?
FALSE

---

Tested on: BJ
Assay: cells
Assay type: functional, cell-based
Settings: Homo sapiens
Calls of active or inactive are those of the source.
Each entry below lists one item and its recorded EC50 value.

{"structure": "O=C1CCCc2cc3c(cc21)CC1(C3)Cc2cc3c(cc2C1)C(=O)CCC3", "measured": "33 µM (active)"}

Indicate its recorded EC50; the compound in question is COCCN1C(=O)/C(=C/c2ccc(N3CCCC3)cc2)SC1=S
> 150 µM (not active)

Indicate its recorded EC50; the compound in question is Brc1nc(-c2ccccc2)nc(-c2ccccc2)c1Br
14 µM (active)

Indicate its recorded EC50; the compound in question is CCC1=Nc2cc(C(=O)NCc3ccco3)ccc2Sc2ccc(C)cc21
13.1 µM (inconclusive)

---

Each entry below lists one item and its recorded EC50 value.
Target: RNA-binding protein pos-1 (Caenorhabditis elegans)
Sequence (G5EF15 whole entry, the tested form may be a part): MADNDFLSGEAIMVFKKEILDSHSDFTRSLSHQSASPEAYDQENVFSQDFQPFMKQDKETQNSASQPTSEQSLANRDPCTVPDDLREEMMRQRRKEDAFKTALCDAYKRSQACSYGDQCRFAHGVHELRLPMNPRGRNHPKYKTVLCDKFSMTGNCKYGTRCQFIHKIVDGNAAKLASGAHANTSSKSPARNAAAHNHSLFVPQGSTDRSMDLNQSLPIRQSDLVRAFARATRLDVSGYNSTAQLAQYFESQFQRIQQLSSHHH
Assay: disruptors of C. elegans POS-1 RNA interaction – biochemical, fluorescence polarization, dose response (AID 1964);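 note: purified POS-1 fused to maltose binding protein made in E. coli; potency of compounds blocking POS-1 binding to fluorescent RNA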
Activity calls are given as the source filed them.

{"molecule": "CCOc1cc(/C=C(\\C#N)c2nc3ccccc3[nH]2)ccc1OC(C)C(=O)O (stereo not given)", "testedSystem": "RNA-binding protein pos-1 (Caenorhabditis elegans)", "measuredEndpoint": "EC50", "measured": "78.5 µM (active)"}
{"molecule": "N#Cc1cc(NC2CCCC2)c([N+](=O)[O-])cc1C#N", "testedSystem": "RNA-binding protein pos-1 (Caenorhabditis elegans)", "measuredEndpoint": "EC50", "measured": "> 300 µM (not active)"}
{"molecule": "CC1CCN(C(=O)CCN2C(=O)/C(=C/c3cccs3)SC2=S)CC1", "testedSystem": "RNA-binding protein pos-1 (Caenorhabditis elegans)", "measuredEndpoint": "EC50", "measured": "> 300 µM (not active)"}
{"molecule": "O=C(CN1CCC(n2nnc3cc(F)ccc32)CC1)NCCc1ccccc1", "testedSystem": "RNA-binding protein pos-1 (Caenorhabditis elegans)", "measuredEndpoint": "EC50", "measured": "> 300 µM (not active)"}
{"molecule": "CCOc1ccc(N2C(=O)NC(=O)/C(=C/Nc3ccc(N(CC)CC)cc3)C2=O)cc1", "testedSystem": "RNA-binding protein pos-1 (Caenorhabditis elegans)", "measuredEndpoint": "EC50", "measured": "151 µM (active)"}

Identify measured EC50 obtained with RNA-binding protein pos-1 (Caenorhabditis elegans) for Cc1cc(/C=C(/C#N)c2nc3ccccc3[nH]2)c(C)n1-c1ccccc1C(=O)O .
> 300 µM (not active)

Identify measured EC50 obtained with RNA-binding protein pos-1 (Caenorhabditis elegans) for CC1(C)CC(=O)C2=C(C1)OC(N)=C(C#N)C21C(=O)N(CN2CCOCC2)c2ccccc21 (stereo not given) .
> 300 µM (not active)

Identify measured EC50 obtained with RNA-binding protein pos-1 (Caenorhabditis elegans) for Cc1ncc(CO)c(/C=N/NC(=O)c2cc(Br)ccc2O)c1O .
> 300 µM (not active)

Identify measured EC50 obtained with RNA-binding protein pos-1 (Caenorhabditis elegans) for COc1ccc(C(=O)c2sc3nc(C)cc(-c4cccs4)c3c2N)cc1OC .
21.2 µM (active)

Identify measured EC50 obtained with RNA-binding protein pos-1 (Caenorhabditis elegans) for COc1cccc(N2C(=O)NC(=O)/C(=C/c3ccc4c(c3)Cc3ccccc3-4)C2=O)c1 .
> 300 µM (not active)

---

Target: UniProt:P9WHJ3
Assay: Fluorescence Cell-Free Homogeneous Dose Retest to Identify Inhibitors of RecA-Intein Splicing Activity. [Related pubchem assays (depositor defined):AID2097, AID2223, AID489010, AID492950]
Assay type: functional
The source made the active and inactive calls.
// allowed return values: yes for active, no for inactive

Example entries begin here.
{"molecule": "Cc1n[nH]c2c1C(c1cccs1)C(C#N)=C(N)O2 (stereo not given)", "testedSystem": "UniProt:P9WHJ3", "qualitativeLabel": "yes"}
{"molecule": "C/N=C1\\C(=O)c2ccccc2C(O)=C1N(C(C)=O)c1ccc(Br)cc1", "testedSystem": "UniProt:P9WHJ3", "qualitativeLabel": "yes"}
{"molecule": "CCOC(=O)c1c(CCl)nc2ccccc2c1-c1ccccc1", "testedSystem": "UniProt:P9WHJ3", "qualitativeLabel": "yes"}
{"molecule": "COC(=O)c1cccc(N2C(=O)C(Cl)=C(N3CCOCC3)C2=O)c1", "testedSystem": "UniProt:P9WHJ3", "qualitativeLabel": "yes"}
{"molecule": "CC1C(=O)C(C)C(c2cc(Cl)ccc2O)NC1c1cc(Cl)ccc1O (stereo not given)", "testedSystem": "UniProt:P9WHJ3", "qualitativeLabel": "yes"}
{"molecule": "CS(=O)(=O)c1nc([N+](=O)[O-])nn1CCCc1ccccc1", "testedSystem": "UniProt:P9WHJ3", "qualitativeLabel": "yes"}
{"molecule": "O=C1/C(=C/c2cccc([N+](=O)[O-])c2)CCc2ccccc21", "testedSystem": "UniProt:P9WHJ3", "qualitativeLabel": "yes"}
{"molecule": "COc1cc(C(C(=O)NC2CCCCC2)N(CCN2CCOCC2)C(=O)C2COc3ccccc3O2)cc(OC)c1OC (stereo not given)", "testedSystem": "UniProt:P9WHJ3", "qualitativeLabel": "no"}
{"molecule": "COc1ccc(NC(=O)/C(Cl)=C(/Cl)S(=O)(=O)Cc2ccccc2)cn1", "testedSystem": "UniProt:P9WHJ3", "qualitativeLabel": "yes"}

# evaluate next
For CCCc1c(-c2ccc(O)cc2)nn(-c2ccc(O)cc2)c1-c1ccc(O)cc1 [PROPYLPYRAZOLETRIOL] , which call appears in the assay record?
yes
